- tested target: human recombinant LSD1 protein (Homo sapiens (Human), UniProt O60341)
- method summary: In vitro enzyme inhibition activity assay - LSD1 (Lance Ultra TR-FRET)
- experimental conditions: all compounds tested in the form of hydrochloride
measured parameter: IC50

[
  {
    "compound": "N#Cc1ccc(-c2nc(N3CC4C(N)C4C3)nc3ccc(-c4c(F)cccc4C(F)(F)F)cc23)cc1F (centres unmarked)",
    "experimental result": "0.03 to 0.3 µM"
  },
  {
    "compound": "CC1(N)CCN(c2nc(-c3ccc(C#N)c(F)c3)c3cc(-c4c(F)cccc4C(F)(F)F)ccc3n2)CC1",
    "experimental result": "≤ 0.03 µM"
  },
  {
    "compound": "Cc1cccc(C)c1-c1ccc2nc(N3CCC(N)CC3)nc(-c3ccc(C#N)c(F)c3)c2c1",
    "experimental result": "≤ 0.03 µM"
  },
  {
    "compound": "COc1ccc(-c2ccc3nc(N4CCC(N)CC4)nc(-c4ccc(C#N)nc4)c3c2)cc1F",
    "experimental result": "0.03 to 0.3 µM"
  },
  {
    "compound": "COc1ccc(-c2ccc3nc(NC[C@@H]4CCNC4)nc(-c4ccc(C#N)c(F)c4)c3c2)cc1F",
    "experimental result": "0.03 to 0.3 µM"
  },
  {
    "compound": "Cc1cccc(-c2ccc3nc(N4CCC(N)CC4)nc(-c4ccc(C#N)c(F)c4)c3c2)c1",
    "experimental result": "0.03 to 0.3 µM"
  },
  {
    "compound": "N#Cc1ccc(-c2nc(N3CC[C@@H](N)[C@@H](F)C3)nc3ccc(-c4c(F)cccc4C(F)(F)F)cc23)cc1F",
    "experimental result": "0.03 to 0.3 µM"
  },
  {
    "compound": "N#Cc1ccc(-c2nc(NC[C@H]3CCNC3)nc3ccc(-c4c(F)cccc4F)cc23)cc1F",
    "experimental result": "0.03 to 0.3 µM"
  },
  {
    "compound": "N#Cc1ccc(-c2nc(NC[C@H]3CCNC3)nc3ccc(-c4cccc(F)c4C(F)(F)F)cc23)cc1F",
    "experimental result": "≤ 0.03 µM"
  },
  {
    "compound": "N#Cc1ccc(-c2nc(NC[C@H]3CCNC3)nc3ccc(-c4c(F)cccc4C(F)(F)F)cc23)cc1F",
    "experimental result": "≤ 0.03 µM"
  },
  {
    "compound": "Cc1cccc(Cl)c1-c1ccc2nc(NC[C@H]3CCNC3)nc(-c3ccc(C#N)c(F)c3)c2c1",
    "experimental result": "≤ 0.03 µM"
  },
  {
    "compound": "COc1ccc(-c2ccc3nc(N4CCC(N)CC4)nc(-c4ccc(C#N)cc4)c3c2)cc1F",
    "experimental result": "0.03 to 0.3 µM"
  },
  {
    "compound": "N#Cc1ccc(-c2nc(N3CCC(N)CC3)nc3ccc(-c4cccc(F)c4C(F)(F)F)cc23)cc1F",
    "experimental result": "≤ 0.03 µM"
  },
  {
    "compound": "C[C@@H]1CN(c2nc(-c3ccc(C#N)c(F)c3)c3cc(-c4c(F)cccc4C(F)(F)F)ccc3n2)CC[C@H]1N",
    "experimental result": "≤ 0.03 µM"
  },
  {
    "compound": "CN(C)C1CCN(c2nc(-c3ccc(C#N)c(F)c3)c3cc(-c4c(F)cccc4C(F)(F)F)ccc3n2)CC1",
    "experimental result": "≤ 0.03 µM"
  },
  {
    "compound": "N#Cc1ccc(-c2nc(N3CC[C@H](N)[C@H](F)C3)nc3ccc(-c4c(F)cccc4C(F)(F)F)cc23)cc1F",
    "experimental result": "≤ 0.03 µM"
  },
  {
    "compound": "Cc1cc(C)c(-c2ccc3nc(NC[C@H]4CCNC4)nc(-c4ccc(C#N)c(F)c4)c3c2)c(C)c1",
    "experimental result": "≤ 0.03 µM"
  },
  {
    "compound": "N#Cc1ccc(-c2nc(N3CCC(N)CC3)nc3c(F)cc(-c4ccccc4F)cc23)cc1F",
    "experimental result": "0.03 to 0.3 µM"
  },
  {
    "compound": "COc1ccc(-c2ccc3nc(NC[C@H]4CCNC4)nc(-c4ccc(C#N)c(F)c4)c3c2)cc1F",
    "experimental result": "0.03 to 0.3 µM"
  },
  {
    "compound": "N#Cc1ccc(-c2nc(NC[C@H]3CCNC3)nc3ccc(-c4cc(F)ccc4C(F)(F)F)cc23)cc1F",
    "experimental result": "0.03 to 0.3 µM"
  },
  {
    "compound": "Cn1ncc2cccc(N3CCc4nc(N5CCC(N)CC5)nc(-c5ccc(C#N)c(F)c5)c4C3)c21",
    "experimental result": "0.03 to 0.3 µM"
  },
  {
    "compound": "N#Cc1ccc(-c2nc(N3CCC[C@@H](N)CC3)nc3ccc(-c4c(F)cccc4C(F)(F)F)cc23)cc1F (stereo in doubt)",
    "experimental result": "≤ 0.03 µM"
  },
  {
    "compound": "Cc1ccccc1-c1ccc2nc(N3CCC(N)CC3)nc(-c3ccc(C#N)c(F)c3)c2c1",
    "experimental result": "0.03 to 0.3 µM"
  },
  {
    "compound": "N#Cc1ccc(-c2nc(N3CCC(N)CC3)nc3ccc(-c4c(F)cccc4C(F)(F)F)cc23)cc1F",
    "experimental result": "≤ 0.03 µM"
  },
  {
    "compound": "N#Cc1ccc(-c2nc(N3CCC4(CCCN4)CC3)nc3ccc(-c4c(F)cccc4C(F)(F)F)cc23)cc1F",
    "experimental result": "≤ 0.03 µM"
  },
  {
    "compound": "CC1(C)CN(c2nc(-c3ccc(C#N)c(F)c3)c3cc(-c4c(F)cccc4C(F)(F)F)ccc3n2)CCC1N (centres unmarked)",
    "experimental result": "≤ 0.03 µM"
  },
  {
    "compound": "Cn1ncc2cccc(-c3ccc4nc(N5CCC(N)CC5)nc(-c5ccc(C#N)c(F)c5)c4c3)c21",
    "experimental result": "≤ 0.03 µM"
  },
  {
    "compound": "N#Cc1ccc(-c2nc(N3CC[C@H](N)C3)nc3ccc(-c4c(F)cccc4C(F)(F)F)cc23)cc1F",
    "experimental result": "≤ 0.03 µM"
  },
  {
    "compound": "Cc1cccc(Cl)c1-c1ccc2nc(N3CCC(N)CC3)nc(-c3ccc(C#N)c(F)c3)c2c1",
    "experimental result": "≤ 0.03 µM"
  }
]
